Value source: patent EP0389975A1

# assayComment: Pharmacokinetics of arecoline in rats after intranasal and intramuscular administration
# Assay type: in vivo, Male Lewis rats
# assayContext: male, Lewis, rat, plasma, inhaled or intranasal, 2 mg/kg; after intranasal administration
quantity: Tmax (min)

COC(=O)C1=CCCN(C)C1 3

---

# assayComment: Pharmacokinetics of arecoline in rats after intranasal and intramuscular administration
# Assay type: in vivo, Male Lewis rats
# assayContext: male, Lewis, rat, plasma, im; Intramuscular, 1 mg/kg Arecoline HBr, n=3 rats
quantity: AUC (ng·h/mL)

COC(=O)C1=CCCN(C)C1 77.7

---

# assayComment: Pharmacokinetics of arecoline in rats after intranasal and intramuscular administration
# Assay type: in vivo, Male Lewis rats
# assayContext: male, Lewis, rat, plasma, inhaled or intranasal, 2 mg/kg; after intranasal administration
quantity: half-life (min)

COC(=O)C1=CCCN(C)C1 2
